system: giant foxtail (Setaria faberi); test: Test G Pre-Emergence Protocol; type: in vivo; details: Setaria faberi, pre-emergence, 312 h, 15.625 g ai/ha, evaluated after 13 days, read-out: Foxtail, Giant damage rating (100=total damage to plant; 0=no damage to plant)
observedProperty: pest or weed control at 15.625 g/ha (%)
Give the value, in units of %, as a plain number.

IN: Enter pest or weed control at 15.625 g/ha (test system giant foxtail (Setaria faberi)) for CN1C[C@H](c2ccc(Cl)cc2)[C@@H](C(=O)Nc2cccnc2F)C1=O
OUT: 80

IN: Enter pest or weed control at 15.625 g/ha (test system giant foxtail (Setaria faberi)) for CN1C[C@@H](c2ccc(C(F)(F)F)cc2)[C@H](C(=O)Nc2ncc(Br)cn2)C1=O (racemic)
OUT: 0

IN: Enter pest or weed control at 15.625 g/ha (test system giant foxtail (Setaria faberi)) for CN1C[C@H](c2ccc(Cl)cc2)[C@@H](C(=O)Nc2cnccc2C(F)(F)F)C1=O
OUT: 90

IN: Enter pest or weed control at 15.625 g/ha (test system giant foxtail (Setaria faberi)) for CN1C[C@@H](c2cc(Cl)nc(C(F)(F)F)c2)[C@H](C(=O)Nc2cccc(F)c2F)C1=O (racemic)
OUT: 60

IN: Enter pest or weed control at 15.625 g/ha (test system giant foxtail (Setaria faberi)) for Cc1cscc1NC(=O)[C@@H]1C(=O)N(C)C[C@H]1c1ccc(C(F)(F)F)cc1 (racemic)
OUT: 30

IN: Enter pest or weed control at 15.625 g/ha (test system giant foxtail (Setaria faberi)) for Cc1ccc(NC(=O)[C@@H]2C(=O)N(C)C[C@H]2c2ccc(C(F)(F)F)cc2)nn1 (racemic)
OUT: 0

IN: Enter pest or weed control at 15.625 g/ha (test system giant foxtail (Setaria faberi)) for CN1C[C@H](c2ccc(C(F)(F)F)cc2)[C@@H](C(=O)Nc2cccc3ccsc23)C1=O (racemic)
OUT: 0

IN: Enter pest or weed control at 15.625 g/ha (test system giant foxtail (Setaria faberi)) for CN1C[C@H](c2ccc(C(F)F)cc2)[C@@H](C(=O)Nc2cccc(F)c2F)C1=O (racemic)
OUT: 80

IN: Enter pest or weed control at 15.625 g/ha (test system giant foxtail (Setaria faberi)) for Cc1ncsc1NC(=O)[C@@H]1C(=O)N(C)C[C@H]1c1ccc(C(F)(F)F)cc1 (racemic)
OUT: 0

IN: Enter pest or weed control at 15.625 g/ha (test system giant foxtail (Setaria faberi)) for CN1C[C@@H](c2cc(Cl)cc(C(F)(F)F)c2)[C@H](C(=O)Nc2ccccc2F)C1=O (racemic)
OUT: 60

IN: Enter pest or weed control at 15.625 g/ha (test system giant foxtail (Setaria faberi)) for CN1C[C@H](c2cccc(C(F)F)c2)[C@@H](C(=O)Nc2ccccc2F)C1=O (racemic)
OUT: 80

IN: Enter pest or weed control at 15.625 g/ha (test system giant foxtail (Setaria faberi)) for CN1C[C@@H](c2ccc(C(F)(F)F)cc2)[C@H](C(=O)Nc2cc(C(F)(F)F)nn2C)C1=O (racemic)
OUT: 0

IN: Enter pest or weed control at 15.625 g/ha (test system giant foxtail (Setaria faberi)) for C=CCc1c(Cl)cccc1NC(=O)[C@H]1C(=O)N(C)C[C@H]1c1ccc(C(F)(F)F)cc1 (racemic)
OUT: 0

IN: Enter pest or weed control at 15.625 g/ha (test system giant foxtail (Setaria faberi)) for CN1C[C@@H](c2ccc(C(F)(F)F)cc2)[C@H](C(=O)Nc2cccc(F)c2C(F)(F)F)C1=O (racemic)
OUT: 70
